- experimentalDetails: Lipophilicity, logD of the compound
- Format: physicochemical
- recordedConditions: octanol/water
propertyLabel: logD

query: Endpoint output: logD of Cc1nc(Cc2ccc(-c3ccccc3)cc2)nc(C(=O)NCC(=O)O)c1O . Value?
result: 0.8

----------
- experimentalDetails: Volume of distribution at steady state in Cynomolgous monkey at 1 mg/kg,iv
- Type: ADME, organism-based, Macaca fascicularis
- recordedConditions: cynomolgus monkey, in vivo, read-out: Vdss
propertyLabel: Vd (L/kg)
State the answer as a number, implicitly in L/kg.

query: Endpoint output: Vd of Cc1nc(Cc2ccc(-c3ccccc3)cc2)nc(C(=O)NCC(=O)O)c1O . Value?
result: 0.06

----------
- experimentalDetails: AUC in Cynomolgous monkey at 3 mg/kg,po
- Type: ADME, organism-based, Macaca fascicularis
- recordedConditions: cynomolgus monkey, in vivo
propertyLabel: AUC
Give me the value, and tack the unit on after it.

query: Endpoint output: AUC of Cc1nc(Cc2ccc(-c3ccccc3)cc2)nc(C(=O)NCC(=O)O)c1O . Value?
result: 380 µg·h/mL
